target: Mu-type opioid receptor (Cavia porcellus)
Sequence (P97266 whole entry): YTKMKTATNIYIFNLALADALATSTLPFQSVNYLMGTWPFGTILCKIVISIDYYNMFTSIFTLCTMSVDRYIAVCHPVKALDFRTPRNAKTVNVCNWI
Binarize Ki at 2 nM; below is class 1, at or above is class 0.

input: Identify whether the compound C[C@@H](NC(=O)[C@@H](N)Cc1ccc(O)cc1)C(=O)NCC(=O)N[C@@H](Cc1c(F)c(F)c(F)c(F)c1F)C(=O)NNC(=O)[C@H](Cc1c(F)c(F)c(F)c(F)c1F)NC(=O)CNC(=O)[C@@H](C)NC(=O)[C@@H](N)Cc1ccc(O)cc1 records Ki below 2 nM.
output: class 1

input: Here's an entry: C[C@@H](NC(=O)[C@@H](N)Cc1ccc(O)cc1)C(=O)NCC(=O)N[C@@H](Cc1cccc2ccccc12)C(=O)NNC(=O)[C@H](Cc1cccc2ccccc12)NC(=O)CNC(=O)[C@@H](C)NC(=O)[C@@H](N)Cc1ccc(O)cc1 . Is its Ki below 2 nM?
output: class 1

input: Report whether reported Ki is lower than 2 nM (strictly) for CC(NC(=O)[C@@H](N)Cc1ccc(O)cc1)C(=O)NCC(=O)N[C@H](C(=O)NNC(=O)[C@@H](NC(=O)CNC(=O)C(C)NC(=O)[C@@H](N)Cc1ccc(O)cc1)[C@@H](C)c1ccccc1)[C@@H](C)c1ccccc1 (single isomer, unassigned)
output: class 0

input: Is it true that Ki reported for C[C@H](c1ccccc1)[C@H](NC(=O)CNC(=O)[C@@H](C)NC(=O)[C@@H](N)Cc1ccc(O)cc1)C(=O)NNC(=O)[C@@H](NC(=O)CNC(=O)[C@@H](C)NC(=O)[C@@H](N)Cc1ccc(O)cc1)[C@H](C)c1ccccc1 (stereo in doubt) is less than 2 nM?
output: class 1

input: Criterion: Ki strictly below 2 nM. Is it met by C[C@@H](NC(=O)[C@@H](N)Cc1ccc(O)cc1)C(=O)NCC(=O)N[C@@H](Cc1ccc2ccccc2c1)C(=O)NNC(=O)[C@H](Cc1ccc2ccccc2c1)NC(=O)CNC(=O)[C@@H](C)NC(=O)[C@@H](N)Cc1ccc(O)cc1 ?
output: class 1
